Data credit: PubChem BioAssay (NCI)

- System: MOLT-4 leukemia
- METHOD SUMMARY: NCI tumour cell line growth inhibition, 48 h
MEASUREMENT LABEL: TGI

Entry `O[C@H]1[C@H](O)[C@H](O)CN2CCC[C@@H](O)[C@H]12` under MOLT-4 leukemia had TGI of > 100 µM

Entry `COc1ccc2[nH]cc(/C=C3/C(=O)Nc4ccc(Cl)cc43)c2c1` , MOLT-4 leukemia data, TGI value: > 100 µM

Considering COc1cc(C2SCC(=O)N2c2ccc(Cl)cc2)cc(I)c1O (stereo not given) , its TGI with MOLT-4 leukemia was recorded as > 100 µM

Value sought: TGI, system MOLT-4 leukemia, item CC12CC3(O)OC(O1)C1(COC(=O)c4ccccc4)C3CC21OC1OC(CO)C(O)C(O)C1O (stereo not given) . Result: > 100 µM

Item `CN(C)CCNC1=CC(=O)c2c(O)ccc(O)c2C1=O` was tested on MOLT-4 leukemia; the reported TGI is > 100 µM

// compound `Oc1ccc2ccccc2c1N=Nc1ccccn1` , assay MOLT-4 leukemia, TGI value: 12.5 µM

# lookup: `COc1ccc(Nc2nc(N)c(C(=O)c3ccccc3)s2)cc1` on MOLT-4 leukemia, TGI = > 61.7 µM

TGI for MOLT-4 leukemia with input COc1ccc(-c2nc(N)c3ncn(C4OC(CO)C(O)C4O)c3n2)cc1 (stereo not given) equals > 100 µM

Sample `CN(C)CCCN=c1cc2c(=O)n(CCCN(C)C)c(=O)c3c(NCCCN(C)C)cc4c(O)n(CCCN(C)C)c(=O)c1c4c3-2` , system: MOLT-4 leukemia. Its TGI is 98.8 µM

Short answer on MOLT-4 leukemia for `C#Cc1cccc(Nc2ncnc3ccc(-c4cnc(Cl)c(NS(C)(=O)=O)c4)cc23)c1` , TGI: 1.53 µM

Item COC1OC(CBr)C(OC(c2ccccc2)(c2ccccc2)c2ccccc2)C(OC(c2ccccc2)(c2ccccc2)c2ccccc2)C1OC(c1ccccc1)(c1ccccc1)c1ccccc1 (stereo not given) was tested on MOLT-4 leukemia; the reported TGI is > 100 µM

The compound `CCCCNC(=O)Oc1ccc2c(=O)c3sc4c(=O)c5ccccc5c(=O)c4c3c(=O)c2c1` on MOLT-4 leukemia: TGI was 6.57 µM

The observed TGI for `CCN(CC)Cc1cc(Nc2ccnc3cc(Cl)ccc23)cc(-c2ccc(Cl)cc2)c1O` when tested with MOLT-4 leukemia stands at > 100 µM

Response field TGI (MOLT-4 leukemia) for item `N/C(=N\c1nc2ccccc2s1)NC(=O)Nc1ccccc1Cl` : > 56.6 µM

Query CN(C)c1ccc2cc(-c3cc4c(oc3=O)-c3ccccc3OC4O)c(=O)oc2c1 (stereo not given) on MOLT-4 leukemia; TGI returned: 5.51 µM

Simply: NC1=NC(c2ccccc2)CC(c2cc(Cl)cc(Br)c2O)=N1 (stereo not given) , MOLT-4 leukemia, TGI = 11.6 µM

Item: `CC(C)(C)OC(=O)Nc1cc(-c2ccccc2)co1` | System: MOLT-4 leukemia | TGI: > 100 µM

Entry `NC(=O)c1cc(Cl)ccc1NC(=O)c1ccccc1-c1ccccc1` ; assay system MOLT-4 leukemia; TGI recorded at > 100 µM

Log: MOLT-4 leukemia, compound `S=P(c1ccccc1)(c1ccccc1)C1(C2(P(=S)(c3ccccc3)c3ccccc3)CC2)CC1` , TGI = > 100 µM

TGI for MOLT-4 leukemia with input `O=S(=O)(O)c1ccc2c(N=Nc3ccccc3Cl)c(O)ccc2c1` equals > 100 µM

Let me check: `O=c1ccccc(-c2ccc(-c3ccco3)cc2)c1O` , system MOLT-4 leukemia, measured TGI is 51.5 µM

For the compound `Nn1c(SCC(=O)NCc2ccccc2)nc2ccccc2c1=O` , the measured TGI on MOLT-4 leukemia was 49.5 µM

O=C1CC2C(=O)C1C(C(=O)O)C2C(=O)O (stereo not given) tested on MOLT-4 leukemia gave TGI: > 100 µM

Item: CCn1cc(C(=O)N/N=C/c2cccc(F)c2)c(=O)c2cc(F)c(N3CCNC(C)C3)c(F)c21 (stereo not given) | System: MOLT-4 leukemia | TGI: 3.4 µM

Entry CC(C)(C)OC(=O)NC(Cc1ccc(OCc2ccccc2)cn1)C(=O)N1CCSCC1 (stereo not given) , tested on MOLT-4 leukemia, has a reported TGI of 59.1 µM

With MOLT-4 leukemia as the test system, N#C/C(=C/C=C/c1ccccc1)S(=O)c1ccccc1 (stereo not given) showed TGI of 3.64 µM

The compound CC1(C)C(=O)C2(OS(=O)(=O)C(F)(F)F)CCC1C2 (stereo not given) , tested on MOLT-4 leukemia, showed TGI of > 100 µM

Noted TGI for O=C(OCC1CCCN2CCCCC12)c1ccncc1 (stereo not given) , tested on MOLT-4 leukemia: > 100 µM

Form: item COc1cc2ccnc3c2c(c1OC)CC1CC(O)C(OC)CC31 (stereo not given) ; test system MOLT-4 leukemia; TGI: > 100 µM

MOLT-4 leukemia data for `c1ccc2c(c1)nnn2CNc1ccc(N2CCOCC2)cc1` ; its TGI: > 100 µM

====

- System: UO-31 renal
- METHOD SUMMARY: NCI tumour cell line growth inhibition, 48 h; in the data active = GI50 below about 0.43 µM; inactive = the rest
Reply using exactly one outcome from active, inactive

GET /call?item= `CCOC(=O)c1c(C)[nH]c(/C=C2\N=C(c3ccc[nH]3)C=C2OC)c1C` returns the recorded outcome of this test.
active

For `O=C1/C(=C/c2ccccc2Br)COc2ccc(O)c(O)c21` , which call appears in the assay record?
inactive

For this compound, state the assay outcome: `CNC(=O)c1cncc(/C=C/c2c(C)cccc2C)c1`
inactive

====

Hi there, I'd appreciate the recorded TGI for every entry that follows.
- System: SF-295 CNS
- METHOD SUMMARY: NCI tumour cell line growth inhibition, 48 h

Recorded result, CCCC#CC(O)(C(=O)OC1CCN(C)CC1)C1CCCCC1 (stereo not drawn) , TGI: > 100 µM

The recorded TGI for entry `CCOC(=O)C(C)(C)/C=C\C(Cl)=C(Cl)Cl` equals > 100 µM

Per the record, CCCCCCCC(=O)OCC1OC(n2cc(F)c(=O)[nH]c2=O)C(NC(=O)OCc2ccccc2)C(OC(=O)CCCCCCC)C1O (stereo not drawn) has TGI of > 100 µM

====

- System: UO-31 renal
- METHOD SUMMARY: NCI tumour cell line growth inhibition, 48 h
MEASUREMENT LABEL: TGI

Given the compound `O=C(c1cc2c(C(F)(F)F)onc2c2ccccc12)C(F)(F)F` and test system UO-31 renal, the measured TGI is 9.52 µM

Summary line: COc1cc(C2SCC(=O)N2c2ccc(Cl)cc2)cc(I)c1O (centres undefined) , UO-31 renal, reported TGI = > 100 µM

UO-31 renal data for C/C=C1\C(=O)O[C@@H]2C1C[C@@H]1O[C@H]2[C@H](C)CCC/C(C)=C/CC[C@@]1(C)O (some centres undefined) ; its TGI: 10.4 µM

I looked up CC(C(=O)c1ccccc1)C1(O)C(=O)Nc2ccccc21 (centres undefined) and its TGI for UO-31 renal was > 100 µM

Reported TGI (UO-31 renal) for entry `CC(C)(C)N1CC(OC(N)=O)C1` is > 100 µM

Item CC1=C(C(=O)NCC(C)O)CC(C(=O)NCC(C)O)=C(C)N1 (centres undefined) was tested on UO-31 renal; the reported TGI is > 100 µM

Readout TGI for `N=C1C(c2nc3ccccc3s2)=C(O)CN1c1ccc(Cl)cc1Cl` , test system UO-31 renal, was 3.62 µM

Record `COC(OC)(c1ccccc1)C(I)I` ; system UO-31 renal; TGI = 29.8 µM

Lab entry: UO-31 renal assay, compound `O=C(CN1CCOCC1)CC(O)(C(F)(F)F)C(F)(F)F` , TGI = > 100 µM

Record for `C[Si](C)(C)/C=C\CCCN1C(=O)CCC1=O` under target or system UO-31 renal: TGI reported as > 100 µM

// returns TGI for `O=C1CC(c2ccc[nH]2)=NN1c1ccccc1` with UO-31 renal; value = > 100 µM

Measured TGI (UO-31 renal), entry C[C@@H](NC1CCC[C@@H]1O)c1ccccc1 (some centres undefined) : > 100 µM

So the reported TGI for `O=c1[nH]c(Nc2cccc(Br)c2)nc2nc[nH]c12` , on UO-31 renal, turned out to be > 100 µM

// compound `O=C1C(Cl)=C(Nc2cccc(O)c2)C(=O)N1c1cccc(Cl)c1` , assay UO-31 renal, TGI value: > 100 µM

Value sought: TGI, system UO-31 renal, item O=CC1OC(=O)c2cc(O)c(O)c(O)c2-c2c(cc(O)c(O)c2O)C(=O)OC1C(O)C(O)CO (centres undefined) . Result: > 100 µM

Simply: `CCOC(=O)c1c(C)[nH]c(/C=C2\N=C(c3ccc[nH]3)C=C2OC)c1C` , UO-31 renal, TGI = 0.058 µM

Hey, UO-31 renal data for CC[C@@]1(O)C(=O)OCc2c1cc1n(c2=O)Cc2c-1nc1ccccc1c2/C=N\NC(=O)C(N)Cc1cnc[nH]1 (some centres undefined) : TGI came out at 2.33 µM

Entry `CC(C)(C)OC(=O)Nc1cc(-c2ccccc2)co1` : TGI on UO-31 renal = > 100 µM

Observed TGI on UO-31 renal, entry COc1cc2ccnc3c2c(c1OC)CC1CC(O)C(OC)CC31 (centres undefined) , equals > 100 µM

Param item: CC1(C)C(=O)C2(OS(=O)(=O)C(F)(F)F)CCC1C2 (centres undefined) ; param system: UO-31 renal; output TGI: > 100 µM

# value of TGI, UO-31 renal, item `COc1cc2c(=O)n(CCCn3ccnc3)c3c4cc5c(cc4ccc3c2cc1OC)OCO5` = > 100 µM

Assay UO-31 renal, sample `O=C(O)c1cc(O)c2c(c1)Cc1cccc(O)c1C2=O` , TGI read: 34.2 µM

The compound CC1=C(/C=C/C2=CC(=C\C(=O)O)/CC(C3=C(C)CCCC3(C)C)C2)C(C)(C)CCC1 (centres undefined) , tested on UO-31 renal, showed TGI of 22.5 µM

For the compound `CCN(CC)C(=O)CNC(=O)OC(C)(C)C` , the measured TGI on UO-31 renal was > 100 µM
